target: norovirus GII.3 TCH strain virus-like particle (VLP) (norovirus GII.3 TCH strain); assay: BLI (BLItz), biotinylated peptide on SA chip, VLP in solution
Where no end group is shown, it is not given here.
Below, each entry is listed with its recorded kon.
A complete answer gives the number and then names the unit.

Please review the following examples before continuing.
[[record]]
binder = "VCVDNDISMS (also: biotinylated, residue not given here, spacer sequence added, letters and position not given here) [norovirus-binding peptide of SEQ ID NO: 150]"
quantitymeasured = "kon"
result = "27000 M⁻¹ s⁻¹"

[[record]]
binder = "GCVGDLYCSA (cysteine pairing not given here; also: biotinylated, residue not given here, spacer sequence added, letters and position not given here) [norovirus-binding peptide of SEQ ID NO: 172]"
quantitymeasured = "kon"
result = "189 M⁻¹ s⁻¹"

[[record]]
binder = "ECMGRRWMSS (also: biotinylated, residue not given here, spacer sequence added, letters and position not given here) [norovirus-binding peptide of SEQ ID NO: 154]"
quantitymeasured = "kon"
result = "141000 M⁻¹ s⁻¹"


Ask: GET /values?readout=kon&item= YVVASKSNRL (also: biotinylated, residue not given here, spacer sequence added, letters and position not given here) [norovirus-binding peptide of SEQ ID NO: 143]
Reply: 325000 M⁻¹ s⁻¹
